Here the recorded speed of sound is given for each entry.
Recorded conditions: 298.15 K; 101.33 kPa; Liquid; Sing-around technique in a fixed-path interferometer
Measured endpoint: speed of sound (m/s)

>>> df
   chemical_smiles  measured_endpoint  measurement
0       Cc1ccccc1C     speed of sound         1349
1    CC(C)c1ccccc1     speed of sound         1338
2     CC(=O)CC(C)C     speed of sound         1215
3     Cc1cccc(C)c1     speed of sound         1323
4     Cc1ccc(C)cc1     speed of sound         1316

====

Recorded conditions: 298.15 K; 101.33 kPa; Liquid; Capillary tube (Ostwald / Ubbelohde) method
Use 0.6 mPa·s as the dividing line for viscosity, with the line itself on the Criterion met side and lower values as Criterion not met.

   chemical_smiles        label_class
0       Cc1ccccc1C      Criterion met
1     CC(=O)CC(C)C  Criterion not met
2    CC(C)c1ccccc1      Criterion met
